Target Or System: Mitogen-activated protein kinase kinase kinase 2 (Homo sapiens)
Run Description: modulators of MEK5 binding to wildtype MEKK2, primary screen, biochemical, multiplex bead flow cytometry, Alexa488-MEK5 (AID 1531)
Experimental Conditions: Alexa488-MEK5 binding to MEKK2 WT, at 10 µM, actives lie on both sides
Hit rate of the full screen: of about 290,000 compounds, about 3,300 (1.1%) were called active. No stated cut-off is given here; in the data, active means binding response below about 67% or above about 130%; inconclusive means no clear call, values can overlap the other calls; inactive means in between. Many of the other results were omitted from the sample, so actives are more common in it than they were.
Bench note: report the call from active, inactive

// query Look up the recorded call for "O=C(Nc1ccc(C(=O)N2CCOCC2)cc1)Nc1cccc(C(F)(F)F)c1" in this test.
// result inactive

// query Field entry: COc1ccccc1C(=O)NCc1nnc(SC(C)C(=O)Nc2nccs2)n1C (stereo not given)
// result inactive

// query Field entry: COc1ccc(OC)c(S(=O)(=O)N2CCCC(C(=O)NCCc3ccccc3)C2)c1 (stereo not given)
// result inactive

// query Field entry: "Nc1cc(N)nc(SCc2cccc(F)c2)n1"
// result inactive

// query Field entry: "Cc1cc(C(=O)NCCCc2ccccc2)no1"
// result inactive

// query Field entry: "CCCCn1c(SCC(=O)NCCc2ccc(OC)c(OC)c2)nc2c1c(=O)n(C)c(=O)n2C"
// result active

// query Field entry: "CCn1c(NCCc2ccc(OC)c(OC)c2)nc2c1c(=O)n(C)c(=O)n2C"
// result inactive

// query Field entry: "C#CC(C)(C)NC(=O)CSc1nc2c(c(=O)n(C)c(=O)n2C)n1CCCC"
// result inactive

// query Field entry: "CCOC(=O)/C=C/c1ccc(C(F)(F)F)cc1S(=O)(=O)NC(C)(C)C"
// result inactive

// query Field entry: "Cc1cccc(NC(=S)NCCc2ccc(Cl)cc2)c1C"
// result inactive

###

Target Or System: Mitogen-activated protein kinase kinase kinase 2 (Homo sapiens) (UniProt Q9Y2U5)
Run Description: modulators of MEK5 binding to wildtype MEKK2, primary screen, biochemical, multiplex bead flow cytometry, Alexa488-MEK5 (AID 1531)
Experimental Conditions: Alexa488-MEK5 binding to MEKK2 WT, at 10 µM, actives lie on both sides
The campaign covered roughly 290,000 compounds. About 3,300 (1.1%) were called active. This is one part of a sample in which actives are shown more often than they occur.
Assay Endpoint: binding response (% of control) (%)
Your answer should be a plain number; it is taken to be in %.

Reference set, count: 5
INSERT INTO measurements (compound, assay_endpoint, unit_tag, numeric_readout) VALUES
  ('Cc1cccc(CN2CCC(CNC(=O)Nc3ccc(F)c(Cl)c3)CC2)c1', 'binding response (% of control)', '%', 139),
  ('Cc1noc(C)c1S(=O)(=O)Nc1ccc(C(=O)O)cc1', 'binding response (% of control)', '%', 100),
  ('Cc1ccccc1NC(=O)NCC1CCN(Cc2cccc(Cl)c2)CC1', 'binding response (% of control)', '%', 104),
  ('C=CCOc1ccccc1NC(=O)CN1C(=O)CNC1=O', 'binding response (% of control)', '%', 106),
  ('Cc1ccc(C)c(CN2CCC(CNC(=O)Nc3ccc(C)c(F)c3)CC2)c1', 'binding response (% of control)', '%', 150);

// query # lookup: binding response (% of control) of "Cc1cc(C)cc(N(CC(=O)N2CC=C(c3ccccc3)CC2)S(=O)(=O)c2c(C)noc2C)c1"
// result 112

// query Field entry: Cc1ccc(CSCC2Nc3ccc(C(=O)N4CCN(c5ccc(F)cc5)CC4)cc3NC2=O)cc1 (stereo not given)
// result 94

// query Field entry: "O=C(NCCCN1CCN(c2ccc(F)cc2)CC1)Nc1ccc([N+](=O)[O-])cc1"
// result 140

// query Field entry: "CCn1c(CC(=O)Nc2ccccc2)nnc1SCC(=O)N1CCOCC1"
// result 96

// query Field entry: "COc1cc(NC(=O)NCC2CCN(Cc3ccc(C)cc3)CC2)cc(OC)c1OC"
// result 113

###

Target Or System: Mitogen-activated protein kinase kinase kinase 2 (Homo sapiens) (UniProt Q9Y2U5)
Run Description: modulators of MEK5 binding to wildtype MEKK2, primary screen, biochemical, multiplex bead flow cytometry, Alexa488-MEK5 (AID 1531)
Experimental Conditions: Alexa488-MEK5 binding to MEKK2 WT, at 10 µM, actives lie on both sides
Out of some 290,000 compounds screened, about 3,300 (1.1%) were called active. Cut-off read from the data, not from the text of the source: active = binding response below about 67% or above about 130%; inconclusive = no clear call, values can overlap the other calls; inactive = in between. For the sample, actives were picked, then their nearest neighbours and some compounds at random.
Bench note: report the call from t (active), f (inactive)

INSERT INTO assay_data (compound, answer_label) VALUES
  ('CCCn1c(C)cc(/C=C(\C#N)C(=O)OCC(=O)Nc2cc(OC)c(OC)c(OC)c2)c1C', 'f'),
  ('CCOC(=O)/C(C#N)=C/c1ccc(OCC(=O)Nc2ccccc2)c(OC)c1', 't'),
  ('CCOC(=O)c1ccc(N2C(=O)CC(N3CCC(C(=O)OCC)CC3)C2=O)cc1 (stereo not drawn)', 'f'),
  ('COCC(C)NC(=O)COc1nncc2ccccc12 (stereo not drawn)', 't'),
  ('COc1ccccc1CC(=O)NCCc1c[nH]c2ccccc12', 'f'),
  ('Nc1ccn(C2CC(O)C(CO)O2)c(=O)n1 (stereo not drawn)', 'f'),
  ('CC(=O)c1ccc(S(=O)(=O)N(C)CCCC(=O)N(C)Cc2ccccc2F)cc1', 'f'),
  ('O=C(c1ccccc1)c1ccc(C(=O)N2CCN(c3ccccc3)CC2)cc1', 'f');

// query Look up the recorded call for "CCOC(=O)C1CCN(C(=O)COc2cccc3ccccc23)CC1" in this test.
// result f

// query Field entry: O=C(NCCO)C(=O)NCC(c1ccc2c(c1)OCO2)N1CCN(c2ccc(F)cc2)CC1 (stereo not drawn)
// result f

// query Field entry: "CSc1ccccc1NC(=O)c1ccc2c(c1)CCN2S(C)(=O)=O"
// result f

// query Field entry: "Cc1cc(=O)[nH]c(SCc2cc(Cl)ccc2OC(F)F)n1"
// result f

// query Field entry: "NC(N)=N/N=C/c1ccc(OCc2ccc(Cl)cc2Cl)cc1"
// result t

// query Field entry: "COc1ccc(NC(=O)CSc2nc3ccccc3c(=O)n2C)cc1"
// result f

// query Field entry: COC(=O)C(C)NC(=O)COc1ccc2ccccc2c1 (stereo not drawn)
// result f

// query Field entry: O=C(CC1NCCNC1=O)Nc1cc(Cl)cc(Cl)c1 (stereo not drawn)
// result f

// query Field entry: "COc1ccc(S(=O)(=O)NCCc2c[nH]c3ccccc23)cc1OC"
// result f

// query Field entry: "COc1ccc(-c2csc3ncnc(N4CCN(S(=O)(=O)c5ccccc5C#N)CC4)c23)cc1"
// result f

// query Field entry: "CC(C)c1c(C(=O)N/N=C/c2ccccc2C(=O)O)nnn1-c1nonc1N"
// result f

// query Field entry: O=C(CC1SCCNC1=O)Nc1ccc(Cl)c(Cl)c1 (stereo not drawn)
// result t

// query Field entry: "COC(=O)c1ccc2c(C(C)(C)O)c(C(C)(C)O)[nH]c2c1"
// result f

// query Field entry: "O=C(OCc1cc2ccccc2[nH]c1=O)c1cccnc1"
// result f

// query Field entry: CC(C)C(C)NC(=O)COc1ncnc2ccccc12 (stereo not drawn)
// result f

###

Target Or System: Mitogen-activated protein kinase kinase kinase 2 (Homo sapiens)
Run Description: modulators of MEK5 binding to wildtype MEKK2, primary screen, biochemical, multiplex bead flow cytometry, Alexa488-MEK5 (AID 1531)
Experimental Conditions: Alexa488-MEK5 binding to MEKK2 WT, at 10 µM, actives lie on both sides
Among all 290,000 compounds or so, about 3,300 (1.1%) were called active. Rule as the data show it: active = binding response below about 67% or above about 130%; inconclusive = no clear call, values can overlap the other calls; inactive = in between. This excerpt belongs to a sample that is enriched for actives.
Bench note: report the call from label 1 = active, label 0 = inactive

Observe how each entry below is paired with its result.
INSERT INTO results (compound, answer_label) VALUES
  ('O=C(NCc1ccccc1)c1onc(CSc2ccncc2)c1C(=O)NCc1ccccc1', 'label 0'),
  ('CN1CCC(=O)N([C@H](CO)Cc2ccccc2)CC1', 'label 0');

// query Look up the recorded call for "CN(C)CCCN(C(=O)c1ccc(S(=O)(=O)N2CCCCCC2)cc1)c1nc2ccc(Br)cc2s1" in this test.
// result label 1

// query Field entry: "CCOc1ccc2nc(N(CCCN(C)C)C(=O)c3ccc(C(=O)c4ccccc4)cc3)sc2c1"
// result label 1

// query Field entry: "OCC1(CCc2ccccc2)CCN(Cc2ccc3nsnc3c2)CC1"
// result label 0

// query Field entry: "S=C(Nc1cccnc1)Nc1ccccn1"
// result label 0

###

Target Or System: Mitogen-activated protein kinase kinase kinase 2 (Homo sapiens)
Run Description: modulators of MEK5 binding to wildtype MEKK2, primary screen, biochemical, multiplex bead flow cytometry, Alexa488-MEK5 (AID 1531)
Experimental Conditions: Alexa488-MEK5 binding to MEKK2 WT, at 10 µM, actives lie on both sides
Hit rate of the full screen: of about 290,000 compounds, about 3,300 (1.1%) were called active. The sample as a whole holds a higher share of actives than the screen did.
Listed below: binding response (% of control) values for each entry.
Your answer should be a plain number; it is taken to be in %.

Reference set, count: 2
INSERT INTO results (molecule, numeric_readout) VALUES
  ('COc1ccccc1NC(=O)CN(c1ccccc1OC)S(=O)(=O)c1ccccc1', 99),
  ('CCOC(=O)N1CCC(NC(=O)CCc2ccccc2)CC1', 107);

// query # lookup: binding response (% of control) of COc1cc2c(cc1OC)C(c1ccccc1Br)NC(=O)C2 (stereo unspecified)
// result 103

// query Field entry: "COc1ccc(-c2nc3c(s2)CCc2onc(-c4ccc(Br)cc4)c2-3)cc1"
// result 95

// query Field entry: "COc1ccc2[nH]c3nc(SCC(=O)NC4CC4)nnc3c2c1"
// result 104

// query Field entry: "CCOC(=O)c1cc2c(ccn2C)n1CC(=O)N1CCC(C)CC1"
// result 110
